tested on: S. pneumoniae ATCC 6301; test: MIC determination, S. pneumoniae ATCC 6301; format: cell-based, Streptococcus pneumoniae; conditions: Table 2
Label criterion met when MIC S. pneumonia ATCC 6301 < 0.5 micrograms per ml; otherwise criterion not met.

Clc1cccc(B(OCCc2c[nH]cn2)c2cccc(Cl)c2)c1 [Compound 121]; criterion not met
CC1(C)S[C@@H]2[C@H](NC(=O)Cc3ccccc3)C(=O)N2[C@H]1C(=O)O [Pen G, reference compound]; criterion met
O=C(O)c1ncccc1O [Compound 115, 3-hydroxypicolinic acid]; criterion not met
Cc1ccc([B-]2(c3ccc(C)c(Cl)c3)OC(=O)c3c(OCCCC(=O)O)ccc[n+]32)cc1Cl [Compound 109]; criterion not met
CC1(C)O[B-](c2cccc(Cl)c2)(c2cccc(Cl)c2)[n+]2cccc(O)c21 [Compound 102]; criterion met

Exercise: Is the reported MIC S. pneumonia ATCC 6301 for O=C(O)c1ncccc1O [Compound 116, 3-hydroxypicolinic acid] strictly below 0.5 micrograms per ml?
Key: criterion met

Exercise: Is the reported MIC S. pneumonia ATCC 6301 for Cc1cc(Cl)ccc1B(OC(=O)c1ncccc1O)c1ccc(Cl)cc1C [Compound 118] strictly below 0.5 micrograms per ml?
Key: criterion met
